These measurements were taken from PubChem BioAssay (NCI).

system: SK-MEL-5 melanoma; test: NCI-60 one-dose screen, 48 h; settings: 10 µM unless noted
Compounds without any hit were thinned out: in the full panel of roughly 83,000, 20% have a hit. Active and inactive are the calls of the source. Rule for the calls: active = growth percent below 10; inactive = the rest.
Tick one outcome: active, inactive

COc1ccc2nc(Nc3cccc(NC(=O)c4ccc(CN5CCCN(C)CC5)c(C(F)(F)F)c4)c3)ccc2c1: active

Give the logged outcome of this assay for the following molecule: COc1cc(C2CC(c3cc(OC)c(OC)c(OC)c3)=Nc3c(N)nc(N)nc3N2)ccc1Oc1nc(NCCO)nc(N2CCOCC2)n1 (configuration not stated)
inactive

Subsequent entry: CCCCSc1nc(NCCc2c[nH]c3ccccc23)c(C#N)c(-c2ccc(OC)cc2)n1
inactive
